# MEASURED TARGET: HLA-A*02:01 (Homo sapiens, UniProt P04439, D140Y/D185E/D98H/E176V/E277Q/G131W/G231S/I119V/I121R/I166T/I218V/L300P/L318F/N151K/N90K/P208A/P217A/Q86G/Q94H/R138H/R169H/T345S)
# PROTOCOL DESCRIPTION: MHC binding assay (UV-ligand exchange, ELISA, peptide exchange yield)
# TEST CONDITIONS: binding of HLA-class I restricted peptides to HLA-A*02:01
PROPERTY: Peptide exchange (MHC class I binding score, peptide exchange yield)

Please review the following examples before continuing.
365 (YVIDQGETDVYV; listed as Homo sapiens) [compound 365] :: ″+++″ (≥50% = +++)
592 (RLLSAAENFL; listed as Homo sapiens) [compound 592] :: ″+++″ (≥50% = +++)
9 (GAAKDLPGV; listed as Homo sapiens) [compound 9] :: ″++″ (≥20% = ++)
545 (LLADLLHNV; listed as Homo sapiens) [compound 545] :: ″+++″ (≥50% = +++)
606 (ALWETEVYI; listed as Homo sapiens) [compound 606] :: ″+++″ (≥50% = +++)

Turning to the following substance.
Record summary for 453 (KLLEATSAV; listed as Homo sapiens) [compound 453] : reported Peptide exchange (MHC class I binding score, peptide exchange yield) = ″++″ (≥20% = ++)

====

# MEASURED TARGET: HLA-A*02:01 (Homo sapiens, UniProt P04439, D140Y/D185E/D98H/E176V/E277Q/G131W/G231S/I119V/I121R/I166T/I218V/L300P/L318F/N151K/N90K/P208A/P217A/Q86G/Q94H/R138H/R169H/T345S)
# PROTOCOL DESCRIPTION: MHC binding assay (UV-ligand exchange, ELISA, peptide exchange yield)
# TEST CONDITIONS: binding of HLA-class I restricted peptides to HLA-A*02:01
PROPERTY: Peptide exchange (MHC class I binding score, peptide exchange yield)

Please review the following examples before continuing.
98 (LIIDQADIYL; listed as Homo sapiens) [compound 98] :: ″+++″ (≥50% = +++)
437 (SMAPGLVIQAV; listed as Homo sapiens) [compound 437] :: ″+++″ (≥50% = +++)
429 (GLVNDLARV; listed as Homo sapiens) [compound 429] :: ″++″ (≥20% = ++)
614 (LLLPDQPPYHL; listed as Homo sapiens) [compound 614] :: ″+++″ (≥50% = +++)

Record summary for 568 (TLYDIAHTPGV; listed as Homo sapiens) [compound 568] : reported Peptide exchange (MHC class I binding score, peptide exchange yield) = ″++++″ (≥75% = ++++)

Record summary for 45 (SLWQDIPDV; listed as Homo sapiens) [compound 45] : reported Peptide exchange (MHC class I binding score, peptide exchange yield) = ″+++″ (≥50% = +++)

Record summary for 551 (KLYESLLPFA; listed as Homo sapiens) [compound 551] : reported Peptide exchange (MHC class I binding score, peptide exchange yield) = ″+++″ (≥50% = +++)

Record summary for 596 (ALLDQTKTLAESAL; listed as Homo sapiens) [compound 596] : reported Peptide exchange (MHC class I binding score, peptide exchange yield) = ″+++″ (≥50% = +++)

Record summary for 196 (YLYSVEIKL; listed as Homo sapiens) [compound 196] : reported Peptide exchange (MHC class I binding score, peptide exchange yield) = ″++++″ (≥75% = ++++)

Record summary for 354 (LILEGVDTV; listed as Homo sapiens) [compound 354] : reported Peptide exchange (MHC class I binding score, peptide exchange yield) = ″++″ (≥20% = ++)
